The origin of these recorded values is patent US20240059691A1.

// reported pIC50 for each item listed
Tested On: UniProtKB P00748
Method: Determination of FXIIa inhibition (fluorogenic substrate H-DPro-Phe-Arg-AFC, IC50 assay)
Type: biochemical
Condition Set: substrate H-DPro-Phe-Arg-AFC at Km, 25° C.; class scale A-G
pIC50: −log10 of the molar value.

Example results:
# Compound, pIC50
records = [
    ("Nc1ncc(Cl)c2cc(NCc3ccc(N4CCn5ccnc5C4)nc3)ccc12 [Example 1129]", "5.00 to 5.52"),
    ("Cc1cc(N2CCn3c(nnc3C(F)(F)F)C2C)ncc1CNc1cccc2c(N)nccc12 (racemic) [Example 1303]", "7.00 to 8.00"),
]

# compound CCN1CCC(OCc2ccc(CNc3cccc4c(N)nccc34)c(F)c2)CC1 [Example 2201] ; its pIC50 = 7.00 to 8.00

response.value for CC(C)(O)c1cn2c(n1)CN(c1ccc(CNc3cccc4c(N)nccc34)cn1)CC2 [Example 1163] (field: pIC50) = 5.00 to 5.52

* * *

# pIC50 measurements, system: Thrombin (Homo sapiens (Human), UniProt P00734)
pIC50: −log10 of the molar value.

# Compound, pIC50
data = [
    ("Cc1cn2c(n1)CC(COc1cc(CNc3cccc4c(N)nccc34)ccn1)CC2 (centres unmarked)", "< 4.40"),
    ("CN1CCC(OCc2ccc(CNc3ccc4c(N)nccc4c3)c(F)c2)CC1", "< 4.40"),
    ("CN1CCC(CNc2ccc(CNc3ccc4c(N)nccc4c3)cn2)CC1", "5.00 to 5.52"),
    ("CN1CC2CC1CC2COc1cc(CNc2cccc3c(N)nccc23)ccn1 (centres unmarked)", "< 4.40"),
    ("CC(C)N1C[C@@H]2C[C@H]1CN2CCc1ccc(CNc2cccc3c(N)nccc23)c(F)c1 (stereo in doubt)", "< 4.40"),
    ("CCN1CCC(COc2ccc(CNc3ccc4c(N)nccc4c3)cn2)CC1", "4.40 to 5.00"),
    ("CN1CC2(CC(OCc3ccc(CNc4cccc5c(N)nccc45)c(F)c3)C2)C1", "< 4.40"),
]

Continue with the compound presented below.
pIC50 value, target or system Thrombin (Homo sapiens (Human), UniProt P00734), for `CN1CCC(Oc2ccc(CNc3cccc4c(N)nccc34)cc2)CC1` : < 4.40

* * *

Method: Pharmacokinetics following a single intravenous dose and a single oral dose in male Sprague-Dawley rats (oral bioavailability, half-life)
Type: in vivo
Condition Set: rat, plasma, 10% DMSO/10% Cremophor EL/80% SWFI
Measured Property: half-life (h)

Worked set:
# Molecule, half-life / h
records = [
    ("Nc1nccc2c(NCc3ccc(OCC4CCn5ccnc5C4)nc3)cccc12 (single isomer, unassigned)", 6.18),
    ("CN1CCC(CNc2ccc(CNc3ccnc4[nH]c(Cl)cc34)cn2)CC1", 8.76),
    ("CC(C)N1C[C@@H]2C[C@H]1CN2CCc1ccc(CNc2cccc3c(N)nccc23)c(F)c1 (stereo in doubt)", 4.34),
    ("CN1CCC(COc2cc(CNc3ccc4c(N)ncc(Cl)c4c3)ccn2)CC1", 12.4),
]

(A) CN1CCC(COc2cc(CNc3cccc4c(N)nccc34)ccn2)CC1
(B) CN1CCC(OCc2ccc(CNc3cccc4c(N)nccc34)c(F)c2)CC1
(C) CN1CCC(OCc2ccc(CNc3cccc4c(N)nccc34)cc2)CC1
(D) Cn1ccc(COc2cc(CNc3cccc4c(N)nccc34)ccn2)cc1=O
-- ask List from greatest to least half-life. The labels, placed in the requested order, form the answer.
-- reply A, B, C, D

* * *

This listing pairs compounds with measured pIC50.
Tested On: KLK1 (Homo sapiens (Human), UniProt P06870)
Sequence (P06870 25-262): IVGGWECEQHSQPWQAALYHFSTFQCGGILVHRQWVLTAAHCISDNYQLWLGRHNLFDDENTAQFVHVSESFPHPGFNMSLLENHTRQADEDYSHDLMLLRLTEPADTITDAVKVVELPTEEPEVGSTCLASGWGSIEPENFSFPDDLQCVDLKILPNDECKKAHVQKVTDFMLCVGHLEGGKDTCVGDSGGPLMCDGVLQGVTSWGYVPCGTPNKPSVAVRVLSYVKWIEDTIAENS
pIC50: −log10 of the molar value.

Sample records with pIC50:
# Compound, Observed Result
rows = [
    ("CN1CCC(Oc2cc(CNc3ccc4c(N)nccc4c3)ccn2)CC1", "4.40 to 5.00"),
    ("Nc1nccc2c(NCc3cnc(N4CCn5c(nnc5C(F)(F)F)C4)cc3C3CC3)cccc12", "5.00 to 5.52"),
    ("CN1CCN(CCc2ccc(CNc3ccc4c(N)nccc4c3)c(F)c2)CC1", "6.00 to 6.52"),
    ("FC(F)(F)c1nnc2n1CCN(c1ccc(CNc3ccn4ccnc4c3)cn1)C2", "< 4.00"),
]

Noted for `CC(C)N1C[C@H]2C[C@@H]1CN2CCc1ccc(CNc2ccc3c(N)ncc(Cl)c3c2)c(F)c1` : its pIC50 reads 5.00 to 5.52

Reported pIC50 for CC1c2nnc(C(F)(F)F)n2CCN1c1ccc(CNc2cccc3c(N)nccc23)cn1 (single isomer, unassigned) [Example 1295] was 5.00 to 5.52

// `Cc1cc(NCc2ccc(N3CCn4c(nnc4C(F)(F)F)C3)nc2)c2cc(Cl)[nH]c2n1` : pIC50 value = < 4.40

So, `CN1CCC(CNc2cc(CNc3ccc4c(N)ncc(Cl)c4c3)ccn2)CC1` ? Its pIC50 was 5.00 to 5.52

* * *

Assay read-out IC50; system under study: Human Factor XIIa (Homo sapiens (Human), UniProt P00748).
Sequence (P00748 373-615): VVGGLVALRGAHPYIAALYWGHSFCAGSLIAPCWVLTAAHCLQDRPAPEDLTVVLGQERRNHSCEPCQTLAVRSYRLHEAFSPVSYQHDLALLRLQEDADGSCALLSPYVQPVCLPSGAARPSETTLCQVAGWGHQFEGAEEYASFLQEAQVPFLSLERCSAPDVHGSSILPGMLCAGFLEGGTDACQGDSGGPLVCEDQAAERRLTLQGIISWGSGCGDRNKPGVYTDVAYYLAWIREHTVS

Here are 4 compounds together with their reported answers.
# Compound, IC50
records = [
    ("CN1CCC(COc2ccc(CNc3cccc4c(N)nccc34)cn2)CC1 [Example 1009]", "0.1 to 0.3 µM"),
    ("CC(C)N1CC2(CN(Cc3ccc(CNc4cccc5c(N)nccc45)c(F)c3)C2)C1 [Example 1036]", "0.3 to 1 µM"),
    ("CN1CCC(CNc2ccc(CNc3ccnc(N)c3)cn2)CC1 [Example 1096]", "3 to 10 µM"),
    ("CN1CCC(COc2cc(CNc3cc4ccnc(N)c4cn3)ccn2)CC1 [Example 4271]", "1 to 3 µM"),
]

Quick note, IC50 for Nc1nccc2c(NCc3ccc(N4Cc5nccn5C(CO)C4)nc3)cccc12 (stereo not drawn) [Example 1133] landed at 3 to 10 µM

// sample CC(C)N1C[C@@H]2C[C@H]1CN2CCc1ccc(CNc2cccc3c(N)nccc23)c(F)c1 (stereo in doubt) [Example 2212] , its IC50 was 0.1 to 0.3 µM

Entry under test: Cc1nnc2n1CCC(COc1cc(CNc3ccc4c(N)nccc4c3)ccn1)C2 (stereo not drawn) [Example 4413] . Its IC50 was 1 to 3 µM

Documented IC50 of CN1CC2(CC(OCc3ccc(CNc4cccc5c(N)nccc45)c(F)c3)C2)C1 [Example 2206] : 3 to 10 µM

Record summary for Nc1ncc(Cl)c2cc(NCc3ccc(NCc4nccn4C(F)F)nc3)ccc12 [Example 1185] : reported IC50 = 10 to 40 µM

* * *

Below, each entry is listed alongside its reported pIC50.
Tested On: Plasma Kallikrein (Homo sapiens (Human))
Sequence (P03952 391-638): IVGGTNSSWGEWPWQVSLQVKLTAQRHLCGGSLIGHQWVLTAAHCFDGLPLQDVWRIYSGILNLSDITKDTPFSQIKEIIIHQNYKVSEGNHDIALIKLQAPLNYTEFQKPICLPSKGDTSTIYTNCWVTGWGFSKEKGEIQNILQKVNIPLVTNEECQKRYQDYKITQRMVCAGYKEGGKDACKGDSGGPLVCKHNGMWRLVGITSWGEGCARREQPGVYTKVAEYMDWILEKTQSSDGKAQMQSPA
Sequence (P03952 20-390 partner): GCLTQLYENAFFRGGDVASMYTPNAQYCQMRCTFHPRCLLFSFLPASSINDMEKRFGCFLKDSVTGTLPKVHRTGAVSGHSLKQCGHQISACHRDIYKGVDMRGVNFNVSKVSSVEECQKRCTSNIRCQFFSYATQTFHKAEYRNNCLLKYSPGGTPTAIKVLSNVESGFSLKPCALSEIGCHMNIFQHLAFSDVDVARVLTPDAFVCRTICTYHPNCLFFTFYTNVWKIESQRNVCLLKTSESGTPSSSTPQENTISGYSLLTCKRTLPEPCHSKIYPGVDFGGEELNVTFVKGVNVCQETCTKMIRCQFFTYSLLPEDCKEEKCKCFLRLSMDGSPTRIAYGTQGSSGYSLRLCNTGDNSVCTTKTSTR
Method: Determination of related protease inhibition: Plasma Kallikrein (fluorogenic substrate at Km)
Condition Set: 25° C., read-out: IC50 (human PKal)
pIC50: −log10 of the molar value.

GET /values?item= Cc1cc(CNc2cccc3c(N)nccc23)cnc1N1CCn2c(nnc2C(F)(F)F)C1 [Example 1302] &system= Plasma Kallikrein (Homo sapiens (Human)) returns pIC50: 4.40 to 5.00

Record for CN1CCN(c2cc(CNc3ccc4c(N)ncc(Cl)c4c3)ccn2)CC1 [Example 4427] under target or system Plasma Kallikrein (Homo sapiens (Human)): pIC50 reported as < 4.40

* * *

Tested On: Human Factor XIIa (Homo sapiens (Human), UniProt P00748)
Method: Determination of FXIIa inhibition (fluorogenic substrate H-DPro-Phe-Arg-AFC, IC50 assay)
Format: biochemical
Condition Set: substrate H-DPro-Phe-Arg-AFC at Km, 25° C.; class scale A-G
pIC50: −log10 of the molar value.
Measured Property: pIC50

# Compound, Observed Result
data = [
    ("CN1C[C@@H](COc2cc(CNc3cccc4c(N)nccc34)ccn2)OC1=O [Example 4279]", "5.00 to 5.52"),
]

Bench note, Human Factor XIIa (Homo sapiens (Human), UniProt P00748): CN1CCC(C)(COc2cc(CNc3cccc4c(N)nccc34)ccn2)CC1 [Example 4424] , pIC50 reads 6.52 to 7.00

Entry CN1CCC(COc2cc(CNc3cnc4c(N)nccc4c3)ccn2)CC1 [Example 4293] , Human Factor XIIa (Homo sapiens (Human), UniProt P00748) data, pIC50 value: 6.00 to 6.52

* * *

Below: a set of entries, each annotated with reported pIC50.
Tested On: Plasma Kallikrein (Homo sapiens (Human))
Method: Determination of related protease inhibition: Plasma Kallikrein (fluorogenic substrate at Km)
Assay type: biochemical
Condition Set: 25° C., read-out: IC50 (human PKal)
pIC50: −log10 of the molar value.

# Structure, pIC50
data = [
    ("CN1CCC(CNc2ccc(CNc3cnc4[nH]cc(C#N)c4c3)cn2)CC1", "< 4.00"),
    ("CN1CCC(CNc2ccc(CNc3nc4ccccc4n3C)cn2)CC1", "< 4.00"),
    ("Cc1cnc2[nH]ccc2c1NCc1ccc(NCC2CCN(C)CC2)nc1", "< 4.00"),
    ("CNC(=O)c1cc(NCc2ccc(NCC3CCN(C)CC3)nc2)cc2ccncc12", "< 4.00"),
    ("CC(C)(O)c1cn2c(n1)CN(c1ccc(CNc3cccc4c(N)nccc34)cn1)CC2", "< 4.40"),
    ("Nc1ncc(Cl)c2cc(NCc3cnc(NCCC(=O)N4CCCC4)nc3)ccc12", "< 4.40"),
]

Field pIC50 (entry `CN1CCC(CNc2ccc(CNc3ccnc4[nH]ccc34)cn2)CC1` ) reads < 4.40

Record `Nc1nccc2c(NCc3ccc(N4CCn5c(nnc5C(F)(F)F)C4)nc3)cccc12` , field pIC50: < 4.40

Lab book: pIC50 of `Nc1ncc(Cl)c2cc(NCc3ccc(NCc4nccn4C(F)F)nc3)ccc12` noted as < 4.40
